Assay: Semi-physiological pharmacokinetic model of ondansetron systemic and CNS disposition (estimated parameters)
Assay type: in vivo, rat
Conditions: female, Sprague Dawley, rat, plasma, brain, spinal cord, CSF, iv, 10 mg/kg, with tariquidar (co-administered); read-out: kel,TRQ Systemic elimination rate constant for OT animals (converted)
Structures can show the parent of a compound that is named as a salt.
Property name: k el (s⁻¹)
Write the value in s⁻¹ as a bare number.

# input molecule: Cc1nccn1CC1CCc2c(c3ccccc3n2C)C1=O (stereo not shown) [Ondansetron, Ondansetron hydrochloride] ; wanted: its k el
0.000839

====

Assay: Semi-physiological pharmacokinetic model of ondansetron systemic and CNS disposition (estimated parameters)
Type: in vivo, rat
Conditions: female, rat, plasma, brain, spinal cord, CSF, iv, 10 mg/kg; read-out: V1 Central volume of distribution
Counter-ions that a name gives are not always drawn.
Property name: Vd (L)
Just the number please, in L, no unit attached.

Fill in: Vd of Cc1nccn1CC1CCc2c(c3ccccc3n2C)C1=O (stereo not shown) [Ondansetron, Ondansetron hydrochloride] is ___
0.0133

====

Assay: Tariquidar concentrations in plasma, brain, spinal cord and CSF after IV administration
Assay type: in vivo, rat
Settings: Sprague Dawley, rat, plasma; female rats, 7.5 mg/kg IV
Property name: half-life (h)
Respond numerically; units are h and should not be typed.

Quick check: half-life of `COc1cc2c(cc1OC)CN(CCc1ccc(NC(=O)c3cc(OC)c(OC)cc3NC(=O)c3cnc4ccccc4c3)cc1)CC2` ?
2.2

====

Assay: Semi-physiological pharmacokinetic model of ondansetron systemic and CNS disposition (estimated parameters)
Format: in vivo, rat
Details: male, Sprague Dawley, rat, plasma, brain, spinal cord, CSF, iv, 10 mg/kg, with tariquidar (co-administered); read-out: V1,TRQ Central volume of distribution
Where a name gives a salt, the structure may show the parent alone.
Property name: Vd (L)
Your answer is read as L, so omit the unit and give the number.

Requested field: Vd. Item: Cc1nccn1CC1CCc2c(c3ccccc3n2C)C1=O (stereo not shown) [Ondansetron, Ondansetron hydrochloride]
0.0127

====

Experiment: Semi-physiological pharmacokinetic model of ondansetron systemic and CNS disposition (estimated parameters)
Assay type: in vivo, rat
Details: male, Sprague Dawley, rat, plasma, brain, spinal cord, CSF, iv, 10 mg/kg, with tariquidar (co-administered); read-out: kel,TRQ Systemic elimination rate constant for OT animals (converted)
Counter-ions that a name gives are not always drawn.
Property name: k el

Dear colleague, I am looking for the recorded k el of the following compound: Cc1nccn1CC1CCc2c(c3ccccc3n2C)C1=O (stereo not shown) [Ondansetron, Ondansetron hydrochloride]
0.000939 s⁻¹

====

Experiment: Tariquidar concentrations in plasma, brain, spinal cord and CSF after IV administration
Type: in vivo, rat
Settings: Sprague Dawley, rat, plasma; male rats, 7.5 mg/kg IV
Property name: half-life (h)
Output spec: scalar in h, unitless text.

I have this compound here, `COc1cc2c(cc1OC)CN(CCc1ccc(NC(=O)c3cc(OC)c(OC)cc3NC(=O)c3cnc4ccccc4c3)cc1)CC2` , and I need its recorded half-life.
3.1

====

Experiment: Semi-physiological pharmacokinetic model of ondansetron systemic and CNS disposition (estimated parameters)
Assay type: in vivo, rat
Details: female, Sprague Dawley, rat, plasma, brain, spinal cord, CSF, iv, 10 mg/kg, with tariquidar (co-administered); read-out: V1,TRQ Central volume of distribution
Structures can show the parent of a compound that is named as a salt.
Property name: Vd
State the result as a value with its unit after it.

What value of measured Vd is listed for Cc1nccn1CC1CCc2c(c3ccccc3n2C)C1=O (stereo not shown) [Ondansetron, Ondansetron hydrochloride] ?
0.0113 L
